These measurements were taken from PubChem BioAssay AID1918994.

System: 292921-168-R-J2-PDC complex spheroid growth;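 further: spheroids exposed to compounds for seven days after three days of growth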
Test: Anticancer human tumor 292921-168-R-J2-PDC patient-derived pancreatic carcinoma cell line growth inhibition [AhR]
Settings: second compound 1 µM; first compound 0.316 µM; stronger effect = lower value
recorded_metric: viability, T/C

[
  {
    "molecule": "CC1(C)CCC(CN2CCN(c3ccc(C(=O)NS(=O)(=O)c4ccc(NCC5CCOCC5)c([N+](=O)[O-])c4)c(Oc4cnc5[nH]ccc5c4)c3)CC2)=C(c2ccc(Cl)cc2)C1 + CC(CO)NC(=O)c1cc(-c2ccc(Cl)cc2)nn(-c2cnn(C)c2)c1=O",
    "experimental_value": "102%"
  },
  {
    "molecule": "CC(C)c1c(-c2ccccc2)nc2c(C#N)c[nH]n2c1=O + Cc1cncc(-c2nc(NCCc3c[nH]c4ccccc34)c3ncn(C(C)C)c3n2)c1",
    "experimental_value": "88.9%"
  },
  {
    "molecule": "CC1COCCN1c1cc(C2(S(C)(=N)=O)CC2)nc(-c2ccnc3[nH]ccc23)n1 (stereo unspecified) + CC(CO)NC(=O)c1cc(-c2ccc(Cl)cc2)nn(-c2cnn(C)c2)c1=O",
    "experimental_value": "99.5%"
  },
  {
    "molecule": "COc1ccc([C@@H](O)c2cc(-c3ncnc4cc(N5CCOCC5)ccc34)c(F)cc2Cl)nn1 + Cc1cncc(-c2nc(NCCc3c[nH]c4ccccc34)c3ncn(C(C)C)c3n2)c1",
    "experimental_value": "62.4%"
  },
  {
    "molecule": "O=C(C=Cc1cccc(S(=O)(=O)Nc2ccccc2)c1)NO + Cc1cncc(-c2nc(NCCc3c[nH]c4ccccc34)c3ncn(C(C)C)c3n2)c1",
    "experimental_value": "49.6%"
  },
  {
    "molecule": "NS(=O)(=O)OCC1CC(n2ccc3c(NC4CCc5ccccc54)ncnc32)CC1O (stereo unspecified) + Cc1ccccc1N=Nc1ccc(NC(=O)c2ccnn2C)c(C)c1",
    "experimental_value": "16.2%"
  },
  {
    "molecule": "CC1COCCN1c1cc(-c2ccnn2C)c2ccnc(-c3ccn[nH]3)c2n1 (stereo unspecified) + Cc1ccccc1N=Nc1ccc(NC(=O)c2ccnn2C)c(C)c1",
    "experimental_value": "19.3%"
  },
  {
    "molecule": "COc1cc(C2c3cc4c(cc3C(OC3OC5COC(C)OC5C(O)C3O)C3COC(=O)C23)OCO4)cc(OC)c1O (stereo unspecified) + CC(CO)NC(=O)c1cc(-c2ccc(Cl)cc2)nn(-c2cnn(C)c2)c1=O",
    "experimental_value": "61.7%"
  },
  {
    "molecule": "CC(C)c1c(-c2ccccc2)nc2c(C#N)c[nH]n2c1=O + CC(CO)NC(=O)c1cc(-c2ccc(Cl)cc2)nn(-c2cnn(C)c2)c1=O",
    "experimental_value": "104%"
  },
  {
    "molecule": "Nc1ccccc1NC(=O)c1ccc(CNC(=O)OCc2cccnc2)cc1 + Cc1cncc(-c2nc(NCCc3c[nH]c4ccccc34)c3ncn(C(C)C)c3n2)c1",
    "experimental_value": "45.7%"
  },
  {
    "molecule": "CC1(C)CCC(CN2CCN(c3ccc(C(=O)NS(=O)(=O)c4ccc(NCC5CCOCC5)c([N+](=O)[O-])c4)c(Oc4cnc5[nH]ccc5c4)c3)CC2)=C(c2ccc(Cl)cc2)C1 + Cc1cncc(-c2nc(NCCc3c[nH]c4ccccc34)c3ncn(C(C)C)c3n2)c1",
    "experimental_value": "90.1%"
  }
]
